- Experiment summary: Plasma level after 4 hours of oral administration of 10 mg/kg compound in mouse
Measured property: concentration at 4 h

The value of concentration at 4 h measured for the compound `CONC(=O)c1cc(Nc2ncnn3cc(-c4nnc(C(F)(F)S(C)(=O)=O)o4)c(C(C)C)c23)c(F)cc1F` turned out to be 13.8 µM

====

Please go through the items and note down their concentration at 4 h.
- Experiment summary: Plasma level after 4 hours of oral administration of 50 mg/kg compound in mouse
- Assay type: ADME, organism-based
- Design: dose 50 mg/kg, route oral
- Test context: read-out: Plasma level
Answers are plain numbers, in µM.

Example compounds with recorded concentration at 4 h:
{"Compound": "CONC(=O)c1cc(Nc2ncnn3cc(-c4nnc(C)o4)c(C(C)C)c23)c(F)cc1F", "concentration at 4 h / µM": 37.7}
{"Compound": "CONC(=O)c1cc(Nc2ncnn3cc(NC(=O)OC4CCN(C)CC4)c(C(C)C)c23)c(F)cc1F", "concentration at 4 h / µM": 3}
{"Compound": "CONC(=O)c1cc(Nc2ncnn3cc(-c4nnc(CS(C)(=O)=O)o4)c(C(C)C)c23)c(F)cc1F", "concentration at 4 h / µM": 232}
{"Compound": "CONC(=O)c1cc(Nc2ncnn3cc(NC(=O)OCC4CCCO4)c(C(C)C)c23)c(F)cc1F (stereo unspecified)", "concentration at 4 h / µM": 2.9}
{"Compound": "CONC(=O)c1cc(Nc2ncnn3cc(-c4nnc(C(F)F)o4)c(C(C)C)c23)c(F)cc1F", "concentration at 4 h / µM": 155}

With those in mind, consider the next compound.
The value of concentration at 4 h measured for the compound `CONC(=O)c1cc(Nc2ncnn3cc(NC(=O)OCCCS(C)(=O)=O)c(C(C)C)c23)c(F)cc1F` turned out to be 13.8
